ASSAY_TEXT: Half-life in rat plasma
Assay type: ADME
READOUT_LABEL: half-life (min)
Reply with just the number (in min).

Field half-life (entry `COC(=O)CCCC=C(c1ccc(OC)cc1OC)c1ccc(OC)cc1OC` ) reads 2.6

The reported value for `C#CCCCC=C(c1cc(Cl)c(OC)c(C(=O)OC)c1)c1cc(Cl)c(OC)c(C(=O)OC)c1` in terms of half-life is 20.6

Record `COC(=O)CCCC=C(c1cc(Cl)c(OC)c(C(=O)OC)c1)c1cc(Cl)c(OC)c(C(=O)OC)c1` . Reported half-life: 5.8

Measured half-life, `COC(=O)c1cc(C(=CCCCc2ccccc2)c2cc(Br)c(OC)c(C(=O)OC)c2)cc(Br)c1OC` : 55

Note to self: half-life recorded for `COC(=O)CCCC=C(c1cc(C#N)c(OC)c(C(=O)OC)c1)c1cc(C#N)c(OC)c(C(=O)OC)c1` was 12.4

Recorded result, `COCCCCC=C(c1cc(Br)c(OC)c(C(=O)OC)c1)c1cc(Br)c(OC)c(C(=O)OC)c1` , half-life: 35.1

In plain terms, `COC(=O)CCCC=C(c1ccc(OC)c(OC)c1)c1ccc(OC)c(OC)c1` has a documented half-life of 0.9

half-life in this record for `COC(=O)CCCC=C(c1cc(C)c(OC)c(C(=O)OC)c1)c1cc(C)c(OC)c(C(=O)OC)c1` : 42.9

Please fill in: half-life reported for `C#CCCCC=C(c1cc(Br)c(OC)c(C(=O)OC)c1)c1cc(Br)c(OC)c(C(=O)OC)c1` = 18.9

According to the records, this molecule `COC(=O)c1cc(C(=CCCCC(=O)OC(C)C)c2cc(C)c(OC)c(C(=O)OC)c2)cc(C)c1OC` displays half-life of 1.7

Lab note: `C=CCCCC=C(c1cc(Br)c(OC)c(C(=O)OC)c1)c1cc(Br)c(OC)c(C(=O)OC)c1` gave half-life of 58.5

Looking up `COC(=O)CCC/C=C(\c1cc(C)c(OC)c(C(=O)OC)c1)c1cc(Cl)c(OC)c(C(=O)OC)c1` , I found its half-life recorded as 9

Given item `C=CCCCC=C(c1cc(Cl)c(OC)c(C(=O)OC)c1)c1cc(Cl)c(OC)c(C(=O)OC)c1` , the value recorded as its half-life is 39.3

The value of half-life measured for the molecule `COC(=O)c1cc(C(=CCCCC(=O)OC(C)C)c2cc(Br)c(OC)c(C(=O)OC)c2)cc(Br)c1OC` turned out to be 5.7

The molecule listed as `CCOc1c(C)cc(C(=CCCCC(=O)OC)c2cc(C)c(OCC)c(C(=O)OC)c2)cc1C(=O)OC` shows half-life equal to 9
